All values here come from ChEMBL document CHEMBL5303304.

- Test system: HEK-293T
- ASSAY: Incucyte cell viability with HEK293T; also: unitless GR value; below 1 slowed growth and below 0 cell loss
- Format: toxicity, cell-based
- MEASUREMENT_SETUP: human, 0 h, 10 µM, compound concentration 10 uM, replicate number 1
Just a reminder that ties go to Not satisfied: only Growth Rate strictly below 0.4 counts as Satisfied.

Here's what some known entries look like.
Criterion: Growth Rate strictly below 0.4. Is it met by COc1ccc(-n2nc3c4ccccc4[nH]cc-3c2=O)cc1 ?
Not satisfied

Criterion: Growth Rate strictly below 0.4. Is it met by Cc1cc(CN(CC(=O)Nc2ccc(Cl)cc2Cl)C2CCCCC2)ccc1OCC(=O)O ?
Not satisfied

Criterion: Growth Rate strictly below 0.4. Is it met by CC(C(=O)Nc1cc(C#N)ccc1CCCC(=O)O)c1ccc(F)c2ccccc12 (configuration not stated) ?
Not satisfied

Criterion: Growth Rate strictly below 0.4. Is it met by Cc1c(CCC(=O)O)cccc1NC(=O)[C@@H](c1ccc(-c2cncc(Cl)c2)c(F)c1)C1CCCC1 ?
Satisfied

Criterion: Growth Rate strictly below 0.4. Is it met by Cc1cc(OCc2nc3ccccc3s2)ccc1NC(=O)Nc1ccc(Cl)c(Cl)c1 ?
Satisfied

Criterion: Growth Rate strictly below 0.4. Is it met by Cc1ccc(C)c(OCCCC(C)(C)C(=O)O[C@@H]2O[C@H](C(=O)O)[C@@H](O)[C@H](O)[C@H]2O)c1 ?
Not satisfied

Criterion: Growth Rate strictly below 0.4. Is it met by O=C(O)C[C@H]1CCn2c1c(Sc1ccc(Cl)cc1)c1ccc(F)cc12 ?
Satisfied

Criterion: Growth Rate strictly below 0.4. Is it met by O=C(N[C@@H]1C2CCN(CC2)[C@H]1Cc1cccnc1)c1cc2ccccc2o1 ?
Not satisfied

***
Criterion: Growth Rate strictly below 0.4. Is it met by Cc1ncsc1-c1ccc(CNC(=O)[C@@H]2C[C@@H](O)CN2C(=O)[C@@H](NC(=O)C2(F)CC2)C(C)(C)C)c(OCCOc2ccc(CN3CCN(c4cc(-c5ccccc5O)nnc4N)CC3)cc2)c1 ?
Satisfied

Criterion: Growth Rate strictly below 0.4. Is it met by COc1cc(Nc2cnc(C#N)c(O[C@H](C)CN(C)C)n2)ncc1-c1cnn(C)c1 ?
Satisfied

Criterion: Growth Rate strictly below 0.4. Is it met by C[C@@H]1Cc2c([nH]c3ccccc23)[C@@H](c2c(F)cc(/C=C/C(=O)O)cc2F)N1CC(C)(C)F ?
Satisfied

Criterion: Growth Rate strictly below 0.4. Is it met by Cc1cc2c(-c3ccco3)cnc(N[C@@H]3CCN(C)C[C@H]3C(=O)NC3CCCCC3)c2[nH]c1=O ?
Satisfied

Criterion: Growth Rate strictly below 0.4. Is it met by CC(=O)Oc1ccc2c(c1)[C@@]1(C)CCC[C@](C)(C(=O)OC(=O)[C@@]3(C)CCC[C@]4(C)c5cc(OC(C)=O)ccc5CC[C@@H]34)[C@@H]1CC2 [ACETYL PODOCARPIC ACID ANHYDRIDE] ?
Not satisfied

Criterion: Growth Rate strictly below 0.4. Is it met by O=C1C[C@@H]2OCC=C3CN4CC[C@]56c7ccccc7N1[C@H]5[C@H]2[C@H]3C[C@H]46 ?
Not satisfied

Criterion: Growth Rate strictly below 0.4. Is it met by CCN1C(=CC(C)=O)Sc2ccc(OC)cc21 ?
Not satisfied

Criterion: Growth Rate strictly below 0.4. Is it met by COC(=O)C1=C(C)NC(C)=C(C(=O)OC(C)C)C1c1cccc2nonc12 (configuration not stated) ?
Not satisfied

Criterion: Growth Rate strictly below 0.4. Is it met by CN1C2CCCC1CC(Nc1ccccc1Br)C2 (configuration not stated) ?
Not satisfied
